- TARGET OR TEST SYSTEM: T1, Human epidermal growth factor (EGF)-like domain multiple 6 (EGFL6) protein (human, UniProt Q8IUX8 22-553)
- T1 construct: Secreted protein; also called human EGFL6; recombinant human EGFL6
- T1 sequence (looked up): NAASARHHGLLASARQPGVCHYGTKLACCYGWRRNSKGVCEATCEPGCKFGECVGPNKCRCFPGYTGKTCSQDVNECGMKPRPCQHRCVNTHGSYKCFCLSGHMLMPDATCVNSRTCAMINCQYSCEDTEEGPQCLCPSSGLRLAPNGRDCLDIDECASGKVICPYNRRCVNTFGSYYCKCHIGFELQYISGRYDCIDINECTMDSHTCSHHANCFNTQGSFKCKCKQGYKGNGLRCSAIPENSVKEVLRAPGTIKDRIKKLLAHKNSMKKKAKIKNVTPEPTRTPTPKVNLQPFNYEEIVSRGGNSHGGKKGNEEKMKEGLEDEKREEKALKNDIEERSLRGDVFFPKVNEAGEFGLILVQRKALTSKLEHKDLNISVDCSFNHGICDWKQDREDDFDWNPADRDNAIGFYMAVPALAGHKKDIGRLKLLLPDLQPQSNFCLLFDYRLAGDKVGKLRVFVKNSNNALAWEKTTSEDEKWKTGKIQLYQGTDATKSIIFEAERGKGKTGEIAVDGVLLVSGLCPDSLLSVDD
- ASSAY NOTES: ELISA titration on coated EGFL6, 4-parameter curve fit
RECORDED ENDPOINT: EC50 (ng/mL)

BINDER: E1-38 monoclonal antibody (antibody, V domains shown, Rabbit variable domains) VH: EQSVKESGGDLVKPEGSLTLTCTASGFSFNSGYWVCWVRQAPGKGLEWIACIYTSSPTGAIYYATWAKGRFTISQTSSTTVTLQMTSLTAADTATYFCTRDNFGGGGSASKLWGPGTLVTISS VL: ELVMTQTPSSKSVPVGGTVTIDCQASESVYSNNRCAWYQQKPGQPPKLLIYYASTLASGVPSRFKCSGSGTRFTLTISGVQCEDAATYYCAGYKTADSDGLGFGGGTEVEIK
RECORDED ENDPOINT: EC50
NUMERIC VALUE: 5.81
